# assay.method.text: in vitro
# setup.conditions: both, human, hepatocytes, pH 7.3
For each entry below, report its hepatocyte CLint at 1 µM value.
Respond with a number, then the unit of measure.

Qu. Quick one: hepatocyte CLint at 1 µM of CCN(CC)CCN1C(=O)CN=C(c2ccccc2F)c2cc(Cl)ccc21 ?
Ans. 22.4 µL/min/1e6 cells

Qu. Record request: hepatocyte CLint at 1 µM value, item C=CCN1CC[C@]23c4c5ccc(O)c4O[C@H]2C(=O)CC[C@@]3(O)[C@H]1C5
Ans. 19 µL/min/1e6 cells

* * *

# Tested on: cryopreserved human hepatocytes
# assay.method.text: Metabolic stability in cryopreserved human hepatocytes
# setup.conditions: 1 µM, third replicate column
Field: Half-Life t1/2 (min) 2rd. Provide a value for each of the molecules that follow.
Give your result in min as a bare value.

Qu. Quick one: Half-Life t1/2 (min) 2rd for C=CCN1CC[C@]23c4c5ccc(O)c4O[C@H]2C(=O)CC[C@@]3(O)[C@H]1C5 ?
Ans. 52.6

Qu. So what does the record say about Half-Life t1/2 (min) 2rd for CCN(CC)CCN1C(=O)CN=C(c2ccccc2F)c2cc(Cl)ccc21 ?
Ans. 45.0

Qu. Entry under review: O=c1cc(C(F)(F)F)c2ccc(O)cc2o1 [HFC, 7-hydroxy-4-trifluoromethylcoumarin] . Reported Half-Life t1/2 (min) 2rd?
Ans. 39.9

Qu. Need Half-Life t1/2 (min) 2rd, item COCCN(CC1CCCN(Cc2ccccc2)C1)S(=O)(=O)c1ccc2ccccc2c1 (racemic)
Ans. 55.6
